# System: HeLa cells
# Test method notes: GFP-NLS transduction in the presence or absence of Cas9-RNP complex, flow cytometry
# Format: cell-based, Human
# Design: concentration or dose not given beside the values
# Condition: absence of Cas9-RNP
Can you tell me GFP transduction efficiency for the items I'm about to list?
Quick reminder: number only, in %, skip the unit.

Return reported GFP transduction efficiency; argument: CM18: CM series peptide, 18 amino acids long; endosome leakage domain in some first generation shuttle agents (KWKLFKKIGAVLKVLTTG; CM18) [reference compound] 32

Return reported GFP transduction efficiency; argument: FSD395: synthetic peptide shuttle agent (KLKLLKLLLKLLKKLGGSGGGSQAKAQAKQAK; FSD395) 91

Return reported GFP transduction efficiency; argument: FSD10-15: 15-amino acid fragment of several longer shuttle agents, including FSD375, FSD10 and FSD210 (KWKLARAFARAIKKL; FSD10-15) 21

Return reported GFP transduction efficiency; argument: FSD268: synthetic peptide shuttle agent (KWKLLKLWSRLLKLWGGSGGGSQARAQARQAR; FSD268) 92

Return reported GFP transduction efficiency; argument: FSD174: synthetic peptide shuttle agent having higher C-terminal positive charge density (LLKIWSRLIKIWTQGRRLGGSGGGSARAARQAR; FSD174) 66

Return reported GFP transduction efficiency; argument: FSD10: synthetic peptide shuttle agent; FSD10-15 core, glycine/serine-rich linker and second cationic domain (KWKLARAFARAIKKLGGSGGGSYARALRRQARTG; FSD10) 76

Return reported GFP transduction efficiency; argument: FSD250: synthetic peptide shuttle agent; FSD446 with C-terminal segment replaced with a cationic segment (KWKLLKLWSRLLKLWGGSGGGSARAARQAR; FSD250) 83

The origin of these recorded values is patent US20230399661A1.
